- Tested on: rats
- PROTOCOL: Pharmacological characteristics at equivalent doses (2×ED50) in rats
- MEASUREMENT CONTEXT: 2×ED50, tail vein, DMSO solution (DMSO alone 10/10)
ENDPOINT LABEL: Adverse reactions: Red urine (incidence)

Example entries begin here.
C[C@H](c1ccccc1)n1cncc1C(=O)OC1(C)COC1; Red urine (8/8)
C=CC#CC(C)OC(=O)c1c(F)ncn1[C@H](C)c1ccccc1 (some centres unmarked); (8/8)
CC#CC(C)(C)OC(=O)c1cncn1[C@H](C)c1ccccc1; Red urine (8/8)
CC#CC(C)OC(=O)c1c(F)ncn1[C@H](C)c1ccccc1 (some centres unmarked); (8/8)
CC(OC(=O)c1cncn1[C@H](C)c1ccccc1)C1CO1 (some centres unmarked); Red urine (8/8)

For each of the compounds below, note its Adverse reactions: Red urine (incidence).
1. C#CC(C)OC(=O)c1cncn1[C@H](C)c1ccccc1 (some centres unmarked)
2. CSCOC(=O)c1cncn1[C@H](C)c1ccccc1
3. CC(=O)C1(OC(=O)c2cncn2[C@H](C)c2ccccc2)CC1

Result string:
1. Red urine (8/8)
2. Red urine (8/8)
3. (8/8)

List the reported Adverse reactions: Red urine (incidence) of each compound below.
1. CC#CC1(OC(=O)c2cncn2[C@H](C)c2ccccc2)CCCCC1
2. C#CC1(OC(=O)c2cncn2[C@H](C)c2ccccc2)CSC1

Result string:
["Red urine (8/8)", "Red urine (8/8)"]

---

Would you mind telling me the reported Corticosterone as an indicator to determine the presence of inhibition of each entry?
- Tested on: secretion of corticosterone, H295R cell line
- PROTOCOL: cells
- Type: cell-based
- MEASUREMENT CONTEXT: H295R cell line; 0.1-10000 nM; HPLC-MS/MS; Table D3
One number for each entry.

C[C@H](c1ccccc1)n1cncc1C(=O)OC(C)(C)C#CC#CC(C)(C)O; 0

// batch mode: one Corticosterone as an indicator to determine the presence of inhibition value per listed entry
1. C/C=C/C1(OC(=O)c2cncn2[C@H](C)c2ccccc2)CCC1
2. C=C=CC1(OC(=O)c2cncn2[C@H](C)c2ccccc2)CSC1

Result string:
0
0

---

So I've got a bunch of compounds here, and I need their recovery time of the test animals' righting reflex values.
- Tested on: rats
- Assay type: in vivo, rat
- MEASUREMENT CONTEXT: rats of the MAP/HR figures, 2×ED50, tail vein; same value in min
One number for each entry, in min.

Sample answers from the record:
CC#CCOC(=O)c1c(F)ncn1[C@H](C)c1ccccc1; 2.52
CC(OC(=O)c1c(F)ncn1C(C)c1ccccc1)=C1CCCC1=O (centres unmarked); 1.75
CCCCC(CCCC)OC(=O)c1cncn1[C@H](C)c1ccccc1; 2.08
C[C@H](c1ccccc1)n1cncc1C(=O)OCCC1CCC1; 4.55

// next entry
Query string: May I ask what recovery time of the test animals' righting reflex has been recorded for `CSCCOC(=O)c1cncn1[C@H](C)c1ccccc1` ?
Result string: 3.1

---

Record form. Attribute: Cortisol as an indicator to determine the presence of inhibition. Fill in for each entry.
- Tested on: secretion of cortisol, H295R cell line
- PROTOCOL: cells
- Assay type: cell-based
- MEASUREMENT CONTEXT: H295R cell line; 0.1-10000 nM; HPLC-MS/MS; Table E3

Some solved entries appear below for comparison.
C/C(OC(=O)c1c(Cl)nc(Cl)n1[C@H](C)c1ccccc1)=C1\CCCC1=O; 0
C[C@H](c1ccccc1)n1cnc(F)c1C(=O)OCC1CC1; 0
COCC1(COC(=O)c2c(Cl)ncn2[C@H](C)c2ccccc2)CCC1; 0
COC(=O)C1(OC(=O)c2cncn2[C@H](C)c2ccccc2)CC1 [CPMM, cyclopropyl methoxycarbonyl methylate, reference compound]; 1

Field: Cortisol as an indicator to determine the presence of inhibition. Fill in for each record below.
1. C[C@H](c1ccccc1)n1cnc(F)c1C(=O)OC(C)(C)C
2. CCOC(=O)c1c(C(F)(F)F)ncn1[C@H](C)c1ccccc1
3. CC(=O)C(C)(C)OC(=O)c1c(C(F)(F)F)ncn1[C@H](C)c1ccccc1
4. C=C=CC1(OC(=O)c2c(F)ncn2[C@H](C)c2ccccc2)COC1

Result string:
[0, 0, 0, 0]

Query string: Need Cortisol as an indicator to determine the presence of inhibition, item CCOC(=O)c1cncn1[C@H](C)c1ccccc1 [Etomidate, reference compound]
Result string: 2

---

- System: rats
- Type: in vivo, rat
- MEASUREMENT CONTEXT: rats of the MAP/HR figures, 2×ED50, tail vein; same value in min
ENDPOINT LABEL: recovery time of the test animals' righting reflex (min)
Give bare numbers, in min.

C=CC(C)(C)OC(=O)c1c(F)ncn1[C@H](C)c1ccccc1; 3.65
CCCC1(OC(=O)c2cncn2[C@H](C)c2ccccc2)COC1; 2.08
CC#CCOC(=O)c1cncn1[C@H](C)c1ccccc1; 5.28

Hi, could you look up recovery time of the test animals' righting reflex for each item in my list?
1. C=C=CC1(OC(=O)c2cncn2[C@H](C)c2ccccc2)CCC1
2. CC#CC(C)OC(=O)c1c(Cl)ncn1[C@H](C)c1ccccc1 (stereo partly drawn)

Result string:
1: 1.82; 2: 1.53

---

Please respond with reported Onset time for every item in the list.
- Tested on: rats
- PROTOCOL: Pharmacological characteristics at equivalent doses (2×ED50) in rats
- MEASUREMENT CONTEXT: 2×ED50, tail vein, time of LORR
Answers are plain numbers, in min.

Fill in Onset time for each of the 8 molecules listed.
1. CC(C)OC(=O)c1c(F)ncn1[C@H](C)c1ccccc1 [Compound E24]
2. CC#CC1(OC(=O)c2cncn2[C@H](C)c2ccccc2)CSC1 [Compound D29]
3. CCC1(COC(=O)c2cncn2[C@H](C)c2ccccc2)COC1 [Compound B9]
4. C=CCC1(OC(=O)c2cncn2[C@H](C)c2ccccc2)CCC1 [Compound D12]
5. C[C@H](c1ccccc1)n1cncc1C(=O)OCC1CC(F)(F)C1 [Compound A12]
6. C[C@H](c1ccccc1)n1cncc1C(=O)OCC1(C2CO2)CCC1 (stereo partly drawn) [Compound A21]
7. CSCCOC(=O)c1cncn1[C@H](C)c1ccccc1 [Compound C27]
8. C=C(C)CC1(OC(=O)c2cncn2[C@H](C)c2ccccc2)CCC1 [Compound D26]

Result string:
[0.38, 0.73, 0.39, 0.32, 0.16, 0.27, 0.12, 0.56]

Query string: Param readout = Onset time; param system = rats; param query = C=C=CC1(OC(=O)c2c(F)ncn2[C@H](C)c2ccccc2)CCCCC1 [Compound E36] ; response: value
Result string: 0.49

---

- Test system: rats
Give measured Approximate therapeutic index for each item. Keep answers brief.

Example cases with answers are listed next.
C=C=CC(C)OC(=O)c1cncn1[C@H](C)c1ccccc1 (some centres unmarked); >11
CCC(C)(C)OC(=O)c1c(F)ncn1[C@H](C)c1ccccc1; >16
C#CC1(OC(=O)c2cncn2[C@H](C)c2ccccc2)COC1; >10

List the reported Approximate therapeutic index of each compound below.
1. C[C@H](c1ccccc1)n1cncc1C(=O)OCC1(C(F)F)CCC1
2. C[C@H](c1ccccc1)n1cncc1C(=O)OCC1CCC1
3. C=C=CC1(SC(=O)c2cncn2[C@H](C)c2ccccc2)COC1
4. C=C=CC(C)OC(=O)c1c(F)ncn1[C@H](C)c1ccccc1 (some centres unmarked)
5. CCC(CC)OC(=O)c1cncn1[C@H](C)c1ccccc1

Result string:
1: >10; 2: >10; 3: >10; 4: >20; 5: >11

Record Approximate therapeutic index per entry; entries follow.
1. CC#CC1(OC(=O)c2c(F)ncn2[C@H](C)c2ccccc2)COC1
2. C#CC(C)OC(=O)c1cncn1[C@H](C)c1ccccc1 (some centres unmarked)
3. C=CC#CC(C)OC(=O)c1c(F)ncn1[C@H](C)c1ccccc1 (some centres unmarked)

Result string:
1. >32
2. >13
3. >80

Below are some compounds; for each one, tell me its Approximate therapeutic index.
1. C#CC1(OC(=O)c2cncn2[C@H](C)c2ccccc2)CCC1 [Compound D1]
2. C=CC#CC(C)OC(=O)c1cncn1[C@H](C)c1ccccc1 (some centres unmarked)
3. C[C@H](c1ccccc1)n1cnc(F)c1C(=O)OCC(C)(C)C
4. C[C@H](c1ccccc1)n1cnc(F)c1C(=O)OC1(C)COC1
5. C[C@H](c1ccccc1)n1cnc(F)c1C(=O)OC1CC1

Result string:
1: >14; 2: >11; 3: >50; 4: >20; 5: >12

# map each compound to its Approximate therapeutic index
1. CCCCC(CCCC)OC(=O)c1cncn1[C@H](C)c1ccccc1
2. COCC1(COC(=O)c2cncn2[C@H](C)c2ccccc2)CCC1
3. CC#CC(C)(C)OC(=O)c1c(F)ncn1[C@H](C)c1ccccc1
4. CC(OC(=O)c1cncn1[C@H](C)c1ccccc1)C1CC1 (some centres unmarked)
5. CC#CC1(OC(=O)c2cncn2[C@H](C)c2ccccc2)CSC1
6. CCC(C)(CC)OC(=O)c1c(F)ncn1[C@H](C)c1ccccc1

Result string:
>10
>12
>32
>33
>13
>42
